- Assayed Target: Glycogen synthase kinase-3 beta (Homo sapiens) (UniProt P49841)
- Sequence (P49841 whole entry, looked up): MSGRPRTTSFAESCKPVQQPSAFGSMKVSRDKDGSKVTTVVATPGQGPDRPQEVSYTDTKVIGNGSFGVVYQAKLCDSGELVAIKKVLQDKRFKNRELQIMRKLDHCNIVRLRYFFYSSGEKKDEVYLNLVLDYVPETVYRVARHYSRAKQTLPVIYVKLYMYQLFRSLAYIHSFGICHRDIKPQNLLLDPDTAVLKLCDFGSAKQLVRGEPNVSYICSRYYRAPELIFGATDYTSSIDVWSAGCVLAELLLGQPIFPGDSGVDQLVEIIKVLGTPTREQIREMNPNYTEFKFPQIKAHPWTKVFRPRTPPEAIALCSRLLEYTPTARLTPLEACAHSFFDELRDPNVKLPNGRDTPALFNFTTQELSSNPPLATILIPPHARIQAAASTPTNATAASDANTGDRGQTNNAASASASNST
- Condition Context: at 10 µM
Metric Name: residual activity (%)
The figure you give is taken to be in %; do not add the unit.

Some molecules with known residual activity results, for comparison:
[[record]]
test_smiles = "CC#CC(=O)Nc1cc2c(Nc3ccc(F)c(Cl)c3)ncnc2cn1"
measured_value = 82

[[record]]
test_smiles = "Cc1cc(Nc2nc(-c3ccccc3)nc3ccccc23)n[nH]1"
measured_value = 10


Task: Respond only with residual activity recorded for Ic1cccc(CSc2nnc(-c3ccncc3)o2)c1
Result: 33

###

Examples of compounds with documented residual activity follow.
- Assayed Target: Rho-associated protein kinase 2 (Homo sapiens) (UniProt O75116)
- Sequence (O75116 whole entry, looked up): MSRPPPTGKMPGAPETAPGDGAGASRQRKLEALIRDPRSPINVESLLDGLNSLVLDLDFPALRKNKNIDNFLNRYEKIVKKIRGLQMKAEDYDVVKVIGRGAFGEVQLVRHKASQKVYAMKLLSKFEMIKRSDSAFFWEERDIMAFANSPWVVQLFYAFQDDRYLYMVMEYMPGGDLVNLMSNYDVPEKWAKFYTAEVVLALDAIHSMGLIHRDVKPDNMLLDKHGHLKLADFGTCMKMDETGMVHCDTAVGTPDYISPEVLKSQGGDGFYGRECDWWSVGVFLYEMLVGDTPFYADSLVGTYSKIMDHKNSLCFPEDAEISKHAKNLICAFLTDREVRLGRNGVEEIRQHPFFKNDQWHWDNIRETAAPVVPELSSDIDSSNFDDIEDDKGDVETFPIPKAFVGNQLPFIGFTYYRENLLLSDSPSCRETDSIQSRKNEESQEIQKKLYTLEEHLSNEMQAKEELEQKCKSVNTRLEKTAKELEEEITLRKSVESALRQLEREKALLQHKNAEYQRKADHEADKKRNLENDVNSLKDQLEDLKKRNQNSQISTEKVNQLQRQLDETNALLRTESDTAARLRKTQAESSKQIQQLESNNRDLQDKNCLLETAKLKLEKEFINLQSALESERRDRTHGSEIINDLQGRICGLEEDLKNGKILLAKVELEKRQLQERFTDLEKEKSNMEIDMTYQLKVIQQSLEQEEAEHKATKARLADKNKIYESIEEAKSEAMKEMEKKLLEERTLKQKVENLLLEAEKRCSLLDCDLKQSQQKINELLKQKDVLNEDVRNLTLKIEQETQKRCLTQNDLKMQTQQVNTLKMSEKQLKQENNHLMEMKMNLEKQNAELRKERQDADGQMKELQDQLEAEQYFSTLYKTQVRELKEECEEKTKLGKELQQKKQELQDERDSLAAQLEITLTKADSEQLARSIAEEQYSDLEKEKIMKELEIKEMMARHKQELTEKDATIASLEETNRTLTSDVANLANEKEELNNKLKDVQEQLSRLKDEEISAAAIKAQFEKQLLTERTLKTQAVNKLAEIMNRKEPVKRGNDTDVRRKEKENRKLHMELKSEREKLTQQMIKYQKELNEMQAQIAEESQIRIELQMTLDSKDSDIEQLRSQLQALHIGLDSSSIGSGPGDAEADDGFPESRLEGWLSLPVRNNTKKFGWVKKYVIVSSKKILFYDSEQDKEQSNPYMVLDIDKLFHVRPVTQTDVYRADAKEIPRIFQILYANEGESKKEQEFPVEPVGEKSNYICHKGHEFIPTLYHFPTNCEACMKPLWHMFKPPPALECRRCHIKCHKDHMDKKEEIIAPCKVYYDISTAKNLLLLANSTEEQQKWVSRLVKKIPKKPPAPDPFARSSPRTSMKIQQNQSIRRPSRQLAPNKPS
- Condition Context: at 1 µM
The figure you give is taken to be in %; do not add the unit.

Some compounds with known residual activity results, for comparison:
[[record]]
test_smiles = "Nc1cccc(-c2cc3c(Oc4cccc(O)c4)ncnc3[nH]2)c1"
metric_name = "residual activity"
uom = "%"
measured_value = 93

[[record]]
test_smiles = "O=C1NC(=O)c2cc(Nc3ccc(F)cc3)c(Nc3ccc(F)cc3)cc21"
metric_name = "residual activity"
uom = "%"
measured_value = 101

[[record]]
test_smiles = "O=C(Nc1cccc(Nc2cc(Nc3cccc(C(F)(F)F)c3)ncn2)c1)C1CC1"
metric_name = "residual activity"
uom = "%"
measured_value = 94


From here, focus on the item given below.
Task: Respond only with residual activity recorded for Cc1ccc(NC2=CC(=O)c3sc(C)nc3C2=O)cc1
Result: 87

###

- Assayed Target: Casein kinase I isoform delta (Homo sapiens)
- Condition Context: at 10 µM
- Description: Millipore: Percentage of residual kinase activity of CSNK1D at 10uM relative to control. Control inhibitor: Jnk Inhibitor II at 100.0uM. Buffer: 8 mM MOPS pH 7.0, 0.2 mM EDTA
Metric Name: residual activity (%)
The figure you give is taken to be in %; do not add the unit.

Some compounds with known residual activity results, for comparison:
[[record]]
test_smiles = "N#C/C(=C(\\N)Sc1ccc(N)cc1)c1ccccc1C(F)(F)F"
measured_value = 82

[[record]]
test_smiles = "C[C@@H](N)[C@H]1CC[C@H](C(=O)Nc2ccncc2)CC1"
measured_value = 110

[[record]]
test_smiles = "O=C1Nc2cc(Br)ccc2/C1=C1/Nc2ccccc2/C1=N\\O"
measured_value = 17

[[record]]
test_smiles = "COc1ccc(C(=O)Nc2sc3c(c2C(N)=O)CCCC3)cc1OC"
measured_value = 96

[[record]]
test_smiles = "CO[C@@H]1[C@H](N(C)C(=O)c2ccccc2)C[C@H]2O[C@]1(C)n1c3ccccc3c3c4c(c5c6ccccc6n2c5c31)C(=O)NC4"
measured_value = 69


From here, focus on the item given below.
Task: Respond only with residual activity recorded for Cc1ccc(NC2=CC(=O)c3sc(C)nc3C2=O)cc1
Result: 88

###

- Assayed Target: Protein kinase C epsilon type (Homo sapiens) (UniProt Q02156)
- Sequence (Q02156 whole entry): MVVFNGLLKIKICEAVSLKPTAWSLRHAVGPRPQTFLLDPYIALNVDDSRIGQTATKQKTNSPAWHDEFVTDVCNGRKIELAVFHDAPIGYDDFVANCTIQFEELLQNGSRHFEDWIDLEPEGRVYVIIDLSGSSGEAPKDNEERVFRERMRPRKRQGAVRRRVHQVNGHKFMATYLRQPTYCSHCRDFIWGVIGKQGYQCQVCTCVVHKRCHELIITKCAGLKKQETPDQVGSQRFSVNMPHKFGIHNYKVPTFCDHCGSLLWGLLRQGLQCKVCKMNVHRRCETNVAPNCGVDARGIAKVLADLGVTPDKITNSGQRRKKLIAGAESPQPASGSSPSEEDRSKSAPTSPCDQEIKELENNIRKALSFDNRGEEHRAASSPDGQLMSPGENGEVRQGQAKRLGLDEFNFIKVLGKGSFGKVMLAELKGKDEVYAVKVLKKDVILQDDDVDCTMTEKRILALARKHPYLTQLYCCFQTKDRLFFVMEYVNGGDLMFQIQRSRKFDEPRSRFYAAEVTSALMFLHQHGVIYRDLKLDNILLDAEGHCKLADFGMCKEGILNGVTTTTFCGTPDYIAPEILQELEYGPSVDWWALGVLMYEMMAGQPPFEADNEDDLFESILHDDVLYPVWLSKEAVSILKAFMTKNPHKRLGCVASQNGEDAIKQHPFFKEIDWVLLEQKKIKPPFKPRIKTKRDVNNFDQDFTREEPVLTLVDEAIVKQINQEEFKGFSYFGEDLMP
- Condition Context: at 1 µM
Examples of compounds with documented residual activity follow.
The figure you give is taken to be in %; do not add the unit.

Some compounds with known residual activity results, for comparison:
[[record]]
test_smiles = "CC(=O)O/N=C1\\C(=C2\\C(=O)Nc3cc(Br)ccc32)Nc2ccccc21"
assayed_target = "Protein kinase C epsilon type (Homo sapiens) (UniProt Q02156)"
uom = "%"
measured_value = 107

[[record]]
test_smiles = "Cn1cnc2cc3c(Nc4cccc(Br)c4)ncnc3cc21"
assayed_target = "Protein kinase C epsilon type (Homo sapiens) (UniProt Q02156)"
uom = "%"
measured_value = 86


From here, focus on the item given below.
Task: Respond only with residual activity recorded for Oc1ccc(Nc2nc(-c3ccc(Cl)cc3)cs2)cc1
Result: 115
